Observed pKi for Cannabinoid receptor 2 (Rattus norvegicus), reported per entry below.
Schema: pKi number; meaning minus log10 of the concentration expressed in molar units.

CCCCCn1cc(C(=O)NC23CC4CC(CC(C4)C2)C3)c(=O)n2ncnc12; 7.68
CCCCCn1cc(C(=O)NC23CC4CC(CC(C4)C2)C3)c(=O)n2nc(-c3ccccc3)nc12; 8.32
CCCCCn1cc(C(=O)NC23CC4CC(CC(C4)C2)C3)c(=O)c2c(C)csc21; 8.90

Consider the additional molecule presented here.
In: # input molecule: CCCCCn1cc(C(=O)NC2CCCCC2)c(=O)c2c(C)csc21 ; wanted: its pKi
Out: 7.83

###

Assay system: Cannabinoid receptor 1 (Homo sapiens)
Sequence (P21554 whole entry): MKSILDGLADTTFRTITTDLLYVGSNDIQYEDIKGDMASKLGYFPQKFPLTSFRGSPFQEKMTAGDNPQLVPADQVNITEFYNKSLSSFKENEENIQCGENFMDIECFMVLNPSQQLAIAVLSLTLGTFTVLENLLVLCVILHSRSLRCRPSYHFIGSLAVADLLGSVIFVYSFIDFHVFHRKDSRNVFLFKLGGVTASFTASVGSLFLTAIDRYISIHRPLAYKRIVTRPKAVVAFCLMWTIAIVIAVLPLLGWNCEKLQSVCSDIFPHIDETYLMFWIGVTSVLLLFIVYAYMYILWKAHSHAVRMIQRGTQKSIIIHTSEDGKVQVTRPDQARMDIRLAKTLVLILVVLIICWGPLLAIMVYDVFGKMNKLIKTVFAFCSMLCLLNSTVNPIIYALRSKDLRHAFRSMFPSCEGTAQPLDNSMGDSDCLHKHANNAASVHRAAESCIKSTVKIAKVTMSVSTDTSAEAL
Assay protocol: Displacement of [3H]CP-55,940 from human recombinant CB1 receptor expressed in CHO cell membranes after 90 mins by scintillation counting analysis
Reported Ki values are given for each entry in this list.
Answer in µM, number only, no unit symbol.

In: # input compound: CCCCCn1cc(C(=O)NC23CC4CC(CC(C4)C2)C3)c(=O)c2c(C)nn(C)c21 ; wanted: its Ki
Out: 0.8

###

Assay system: Cannabinoid receptor 2 (Rattus norvegicus) (UniProt Q9QZN9)
Sequence (whole entry): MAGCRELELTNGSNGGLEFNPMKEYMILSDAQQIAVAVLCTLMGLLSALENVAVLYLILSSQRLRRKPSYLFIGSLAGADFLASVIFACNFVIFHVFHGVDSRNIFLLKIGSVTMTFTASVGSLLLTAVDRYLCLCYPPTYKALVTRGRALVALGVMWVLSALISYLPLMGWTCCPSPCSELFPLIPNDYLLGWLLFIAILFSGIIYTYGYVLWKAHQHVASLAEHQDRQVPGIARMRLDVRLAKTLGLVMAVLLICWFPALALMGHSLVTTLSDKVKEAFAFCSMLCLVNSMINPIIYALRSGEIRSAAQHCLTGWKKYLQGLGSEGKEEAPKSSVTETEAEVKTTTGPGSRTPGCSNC
Assay protocol: Displacement of [3H]CP-55,940 from Sprague-Dawley rat spleen CB2 receptor at 1 to 10000 nM by scintillation counting analysis
Rule: inhibition of 30% or more gives Satisfied; anything lower gives Not satisfied.

Reference set (4 entries):
CCCCCn1cc(C(=O)Nc2ccc(OC)cc2)c(=O)c2c(C)nn(C)c21; Not satisfied
Cc1nn(C)c2c1c(=O)c(C(=O)NC1CCCCC1)cn2CCCCC#N; Not satisfied
Cc1ccc(Cn2cc(C(=O)NC3CCCCC3)c(=O)c3c(C)nn(C)c32)cc1; Not satisfied
C=CCn1cc(C(=O)NC2CCCCC2)c(=O)c2c(C)nn(C)c21; Satisfied

In: Given the entry CCCCCn1cc(C(=O)NC2CCCCC2)c(=O)c2c(-c3ccccc3)nn(C)c21 , answer whether its inhibition meets or surpasses 30%.
Out: Not satisfied

###

Assay system: UniProt:Q9QZN9
Sequence (Q9QZN9 whole entry): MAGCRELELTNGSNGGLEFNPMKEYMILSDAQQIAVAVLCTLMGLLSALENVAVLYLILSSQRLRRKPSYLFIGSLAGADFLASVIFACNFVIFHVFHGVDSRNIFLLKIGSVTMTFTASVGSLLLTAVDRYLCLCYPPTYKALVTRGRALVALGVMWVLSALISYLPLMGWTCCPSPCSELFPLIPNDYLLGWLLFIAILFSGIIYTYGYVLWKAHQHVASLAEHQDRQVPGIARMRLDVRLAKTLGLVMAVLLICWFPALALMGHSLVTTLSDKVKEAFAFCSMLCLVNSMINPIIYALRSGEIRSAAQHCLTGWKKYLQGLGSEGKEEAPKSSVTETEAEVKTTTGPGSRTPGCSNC
Class field: derived from Ki; ranges lower band (below 50 nM), central band (50 nM to below 400 nM), upper band (400 nM or more)

CCCCCn1cc(C(=O)NCc2ccccc2)c(=O)c2c(C)nn(C)c21; upper band
C=CCn1cc(C(=O)NC2CCCCC2)c(=O)c2c(C)nn(C)c21; upper band
CCCCCn1cc(C(=O)NC2CCCCC2)c(=O)c2cnn(C)c21; central band
CCCCCn1cc(C(=O)NC2CCCCCC2)c(=O)c2cnn(C)c21; central band
CCCCCn1cc(C(=O)NC2CCCCC2)c(=O)c2c(-c3ccc(Cl)cc3)nn(C)c21; upper band

In: Form field 'band' for CCCCCn1cc(C(=O)NC2CCCCCC2)c(=O)c2c(-c3ccccc3)nn(C)c21
Out: upper band

In: Can you check CCCCCn1cc(C(=O)NC(C)CCC(C)C)c(=O)c2c(C)nn(C)c21 (stereo unspecified) next?
Out: central band

In: Can you check CCCCCn1cc(C(=O)NC2CCCCC2)c(=O)c2c(-c3ccccc3)nn(C)c21 next?
Out: upper band

In: Can you check CCCCCn1cc(C(=O)NC2CCCCCC2)c(=O)c2c(-c3ccc(Cl)cc3)nn(C)c21 next?
Out: upper band

In: Can you check CCCCCn1cc(C(=O)NC23CC4CC(CC(C4)C2)C3)c(=O)c2c(C)noc21 next?
Out: lower band

In: Can you check CCCCCn1cc(C(=O)NC2CCCCCC2)c(=O)c2c(C)csc21 next?
Out: lower band

In: Can you check CCCCCn1cc(C(=O)NC2CCCCC2)c(=O)c2c(C)noc21 next?
Out: lower band
